# experiment description: NCI Yeast Anticancer Drug Screen. Data for the cln2 rad14 strain (AID 165);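 also: 0% = growth equal to vehicle treated cultures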
# settings: S. cerevisiae cln2 rad14 strain, at 50.0 µM, hits give high values
The panel holds about 79,000 compounds, 15% with a hit somewhere; the sample as a whole holds those more often.
Label fulfilled when growth inhibition >= 10%; otherwise not fulfilled.

Reference set, count: 3
CN(C(=N)N)c1ccc(C(=O)Oc2ccc([N+](=O)[O-])cc2)cc1	not fulfilled
O=C(N=Nc1c(O)[nH]c2ccccc12)c1ccncc1	not fulfilled
Cc1ccc(NC(=O)CCC(CC(=O)C(C)(C)C)=NNC(=O)C(=O)NN)cc1C	not fulfilled

## Task Threshold query (growth inhibition >= 10%) on CN(C)c1cc[n+](-c2c([O-])c3ccccc3n(-c3ccccc3)c2=O)cc1
## Result fulfilled

## Task Decide: is the reported value of growth inhibition for CO[C@H](C)[C@@](O)(C(=O)OCC1=CCN2CCC[C@@H]12)C(C)C equal to or greater than 10%?
## Result not fulfilled

## Task Hi team, for CCOC(=O)c1c(C)c2c(n1C)CC/C(=C/NCCc1ccccc1)C2=O , is the recorded growth inhibition at or above 10%?
## Result fulfilled

## Task // inclusive: growth inhibition at least 10%? input: CC(C)=CC1C(COC(=O)c2ccccc2Cl)C1(C)C (stereo not drawn)
## Result not fulfilled

## Task Given CCCCCCCC(=O)Nc1ccc(-n2c(=O)cc(C)n2C)cc1 , state whether its growth inhibition is at least 10%.
## Result not fulfilled

## Task In plain terms: is recorded growth inhibition at least 10% for O=c1[nH]c(-c2ccccc2N=NN2CCCCC2)nc2ccccc12 ?
## Result not fulfilled

## Task Check this compound for growth inhibition at or above 10%: CCc1[nH]nc(-c2n[nH]c(CC)c2C)c1C
## Result not fulfilled

## Task Please indicate if the recorded growth inhibition for COC(=O)c1ccc(C(=O)OC)c2nc3cc(C)c(C)cc3nc12 meets or exceeds 10%.
## Result not fulfilled

## Task Hi, just wondering whether CS(=O)(=O)OCC(=O)NCCCCNC(=O)COS(C)(=O)=O shows growth inhibition of 10% or higher.
## Result not fulfilled

## Task Can O=C(O)c1ccc(OS(=O)(=O)c2ccccc2)cc1 be said to have growth inhibition at or above 10%?
## Result fulfilled

## Task Decide: growth inhibition of CCN(CC)CCOc1ccc(/C=C(\C#N)c2ccc(OCCN(CC)CC)cc2)cc1 >= 10%?
## Result fulfilled

## Task Is the recorded value of growth inhibition equal to or greater than 10% for this compound? C=CCN(CC=C)c1ccccc1
## Result fulfilled

## Task Form field: growth inhibition at least 10%? Entry: CCCCCCCCC(=O)c1c(OC)oc(C=O)cc1=O
## Result fulfilled

## Task Does the reported growth inhibition for O=C(O)C(c1ccccc1)C(O)C1CCCC1 (stereo not drawn) fall at or above the 10% mark?
## Result not fulfilled

## Task API: above_or_equal(metric=growth inhibition, cutoff=10%) for item SC(S)(Cc1ccccc1)Cc1ccccc1
## Result not fulfilled

----------
# experiment description: NCI Yeast Anticancer Drug Screen. Data for the mec2-1 strain (AID 157)
# settings: S. cerevisiae mec2-1 strain, at 50.0 µM, hits give high values
About 79,000 compounds went through this panel and 15% of them were active in at least one assay; those are over-represented in the sample as a whole.
# growth inhibition annotations
Just the number please, in %, no unit attached.

COC(=O)C(=O)C1CCc2c(C(=O)OC)nc3[nH]n(-c4ccccc4)c(=O)c3c21 (stereo unspecified)	-14.3
CN1CCN(C2CCCc3ccccc3C2=O)CC1 (stereo unspecified)	-10.6
CC/C=N/Nc1ccc([N+](=O)[O-])cc1[N+](=O)[O-]	-9.1

## Task Return growth inhibition (reported value) for this compound: Cc1nc2c(c(-c3ccc(Cl)cc3)n1)Cc1c(ccc3ccccc13)O2
## Result -5.9

src = PubChem BioAssay (NCI)
